system: Zea mays (ZEAMX); test: F. Post-emergence effect on useful plants, ZEAMX; format: in vivo; settings: useful plant, application rate 80 g/ha
measure: Post-emergence efficacy against ZEAMX in % (%)

Recorded Post-emergence efficacy against ZEAMX in %, per entry:
CCCCCS(=O)(=O)Oc1ccccc1Oc1ncc(Cl)cn1 : 20
O=S(=O)(CCC(F)(F)F)Oc1c(F)cccc1Oc1ncc(Cl)cn1 : 0
O=S(=O)(CCC(F)(F)F)Oc1c(Cl)cccc1Oc1ncc(Br)cn1 : 20
O=S(=O)(CC1CC1)Oc1ccccc1Oc1ncc(Cl)cn1 : 20
Cc1cccc(Oc2ncc(Cl)cn2)c1OS(=O)(=O)CCC(F)=C(F)F : 0

a: O=S(=O)(CCC(F)=C(F)F)Oc1c(F)cccc1Oc1ncc(Cl)cn1
b: CCCS(=O)(=O)Oc1ccccc1Oc1ncc(Cl)cn1
Request: Two entries are listed, a and b . Which one carries the higher Post-emergence efficacy against ZEAMX in %? Choose, then provide that item's label.
Result: a
(a: 20%, b: 10%)

A: O=S(=O)(CCCCl)Oc1ccccc1Oc1ncc(Cl)cn1
B: N#Cc1cccc(Oc2ncc(Cl)cn2)c1OS(=O)(=O)CCC(F)(F)F
C: Cc1cccc(Oc2ncc(Cl)cn2)c1OS(=O)(=O)CC=C(Cl)Cl
Request: Returns the items ordered by Post-emergence efficacy against ZEAMX in %, from maximum to minimum. Please express your ranking as an ordered list of the labels.
Result: A, C, B
(A: 20%, C: 10%, B: 0%)
